Tested on: Sindbis virus
Experiment: Antiviral activity against Sindbis virus-induced cytopathogenicity in Vero cells
Format: functional
propertyName: MIC

compound=C=CCc1cn(C/C=C2\OC(=O)C(OCc3ccccc3)=C2OCc2ccccc2)c(=O)[nH]c1=O measuredtarget="Sindbis virus" measuredvalue="24 µM"
compound=NC(=O)c1ncn([C@@H]2O[C@H](CO)[C@@H](O)[C@H]2O)n1 measuredtarget="Sindbis virus" measuredvalue="100 µM"
compound=O=C1O/C(=C\Cn2cc(-c3ccccc3)c(=O)[nH]c2=O)C(OCc2ccccc2)=C1OCc1ccccc1 measuredtarget="Sindbis virus" measuredvalue="> 157 µM"
compound=O=C1O/C(=C\Cn2cc(/C=C/Br)c(=O)[nH]c2=O)C(OCc2ccccc2)=C1OCc1ccccc1 measuredtarget="Sindbis virus" measuredvalue="> 150 µM"
compound=O=C1O/C(=C\Cn2cc(-c3ccco3)c(=O)[nH]c2=O)C(O)=C1O measuredtarget="Sindbis virus" measuredvalue="> 100 µM"
compound=CC(C)=CCc1cn(C/C=C2\OC(=O)C(OCc3ccccc3)=C2OCc2ccccc2)c(=O)[nH]c1=O measuredtarget="Sindbis virus" measuredvalue="> 4 µM"
compound=CC#Cc1cn(C/C=C2\OC(=O)C(OCc3ccccc3)=C2OCc2ccccc2)c(=O)[nH]c1=O measuredtarget="Sindbis virus" measuredvalue="1.6 µM"
compound="Nc1ncnc2c1ncn2C[C@H](O)CO [(S)-DHPA]" measuredtarget="Sindbis virus" measuredvalue="> 500 µM"
compound=O=C1O/C(=C\Cn2cc(-c3cccs3)c(=O)[nH]c2=O)C(OCc2ccccc2)=C1OCc1ccccc1 measuredtarget="Sindbis virus" measuredvalue="> 156 µM"
compound=O=C1O/C(=C\Cn2cc(C#Cc3ccccc3)c(=O)[nH]c2=O)C(O)=C1O measuredtarget="Sindbis virus" measuredvalue="> 4 µM"
compound=O=C1O/C(=C\Cn2cc(C#Cc3ccccc3)c(=O)[nH]c2=O)C(OCc2ccccc2)=C1OCc1ccccc1 measuredtarget="Sindbis virus" measuredvalue="120 µM"
compound=O=C1O/C(=C\Cn2cc(-c3ccco3)c(=O)[nH]c2=O)C(OCc2ccccc2)=C1OCc1ccccc1 measuredtarget="Sindbis virus" measuredvalue="> 6.4 µM"
compound=C#Cc1cn(C/C=C2\OC(=O)C(O)=C2O)c(=O)[nH]c1=O measuredtarget="Sindbis virus" measuredvalue="> 4 µM"
compound=O=c1[nH]c(=O)n([C@H]2C[C@H](O)[C@@H](CO)O2)cc1/C=C/Br measuredtarget="Sindbis virus" measuredvalue="> 500 µM"
compound=C#Cc1cn(C/C=C2\OC(=O)C(OCc3ccccc3)=C2OCc2ccccc2)c(=O)[nH]c1=O measuredtarget="Sindbis virus" measuredvalue="> 18 µM"
compound=C=Cc1cn(C/C=C2\OC(=O)C(O)=C2O)c(=O)[nH]c1=O measuredtarget="Sindbis virus" measuredvalue="> 29 µM"
compound=O=C1O/C(=C\Cn2cc(-c3ccccc3)c(=O)[nH]c2=O)C(O)=C1O measuredtarget="Sindbis virus" measuredvalue="> 100 µM"
compound=O=C1O/C(=C(\Br)Cn2c(Br)c(/C=C/Br)c(=O)[nH]c2=O)C(OCc2ccccc2)=C1OCc1ccccc1 measuredtarget="Sindbis virus" measuredvalue="> 116 µM"
compound=O=C1O/C(=C\Cn2cc(-c3ccc(Br)o3)c(=O)[nH]c2=O)C(OCc2ccccc2)=C1OCc1ccccc1 measuredtarget="Sindbis virus" measuredvalue="> 70 µM"
compound=O=C1O/C(=C\Cn2cc(-c3ccc(Cl)o3)c(=O)[nH]c2=O)C(OCc2ccccc2)=C1OCc1ccccc1 measuredtarget="Sindbis virus" measuredvalue="> 150 µM"
compound=C=C=Cc1cn(C/C=C2\OC(=O)C(OCc3ccccc3)=C2OCc2ccccc2)c(=O)[nH]c1=O measuredtarget="Sindbis virus" measuredvalue="> 200 µM"
compound=O=C1O/C(=C\Cn2cc(-c3cccs3)c(=O)[nH]c2=O)C(O)=C1O measuredtarget="Sindbis virus" measuredvalue="> 100 µM"
compound=C=Cc1cn(C/C=C2\OC(=O)C(OCc3ccccc3)=C2OCc2ccccc2)c(=O)[nH]c1=O measuredtarget="Sindbis virus" measuredvalue="> 18 µM"

----------
Examples of compounds with documented IC50 follow.
Test system: HeLa
Assay: Antiproliferative activity against human HeLa cells after 72 hrs by MTT assay
Assay type: functional, cell-based
propertyName: IC50 (µM)

structureassmiles=C=CCc1cn(C/C=C2\OC(=O)C(OCc3ccccc3)=C2OCc2ccccc2)c(=O)[nH]c1=O propertyname=IC50 unittag=µM censoringqualifier== measuredvalue=2.9
structureassmiles=O=C1O/C(=C\Cn2cc(-c3cccs3)c(=O)[nH]c2=O)C(O)=C1O propertyname=IC50 unittag=µM censoringqualifier=> measuredvalue=100
structureassmiles=CC#Cc1cn(C/C=C2\OC(=O)C(OCc3ccccc3)=C2OCc2ccccc2)c(=O)[nH]c1=O propertyname=IC50 unittag=µM censoringqualifier== measuredvalue=0.2
structureassmiles=O=C1O/C(=C\Cn2cc(C#Cc3ccccc3)c(=O)[nH]c2=O)C(OCc2ccccc2)=C1OCc1ccccc1 propertyname=IC50 unittag=µM censoringqualifier=> measuredvalue=100
structureassmiles=C#Cc1cn(C/C=C2\OC(=O)C(O)=C2O)c(=O)[nH]c1=O propertyname=IC50 unittag=µM censoringqualifier== measuredvalue=13
structureassmiles=O=C1O/C(=C\Cn2cc(-c3ccco3)c(=O)[nH]c2=O)C(OCc2ccccc2)=C1OCc1ccccc1 propertyname=IC50 unittag=µM censoringqualifier== measuredvalue=2
structureassmiles=O=C1O/C(=C\Cn2cc(-c3ccco3)c(=O)[nH]c2=O)C(O)=C1O propertyname=IC50 unittag=µM censoringqualifier=> measuredvalue=100
structureassmiles=O=C1O/C(=C(\Br)Cn2c(Br)c(/C=C/Br)c(=O)[nH]c2=O)C(OCc2ccccc2)=C1OCc1ccccc1 propertyname=IC50 unittag=µM censoringqualifier== measuredvalue=22
structureassmiles=O=C1O/C(=C\Cn2cc(-c3ccccc3)c(=O)[nH]c2=O)C(OCc2ccccc2)=C1OCc1ccccc1 propertyname=IC50 unittag=µM censoringqualifier== measuredvalue=25

----------
// values below are reported IC50
Test system: L1210
Test: Antiproliferative activity against mouse L1210 cells
Assay type: functional, cell-based
propertyName: IC50 (µM)

structureassmiles=C#Cc1cn(C/C=C2\OC(=O)C(OCc3ccccc3)=C2OCc2ccccc2)c(=O)[nH]c1=O propertyname=IC50 measuredvalue=6.8
structureassmiles=O=C1O/C(=C\Cn2cc(-c3ccc(Br)o3)c(=O)[nH]c2=O)C(OCc2ccccc2)=C1OCc1ccccc1 propertyname=IC50 measuredvalue=115
structureassmiles=O=C1O/C(=C\Cn2cc(/C=C/Br)c(=O)[nH]c2=O)C(OCc2ccccc2)=C1OCc1ccccc1 propertyname=IC50 measuredvalue=196
structureassmiles=C=Cc1cn(C/C=C2\OC(=O)C(O)=C2O)c(=O)[nH]c1=O propertyname=IC50 measuredvalue=309
structureassmiles=O=C1O/C(=C\Cn2cc(-c3ccco3)c(=O)[nH]c2=O)C(OCc2ccccc2)=C1OCc1ccccc1 propertyname=IC50 measuredvalue=6.8
structureassmiles=O=C1O/C(=C\Cn2cc(-c3ccccc3)c(=O)[nH]c2=O)C(O)=C1O propertyname=IC50 measuredvalue=354
structureassmiles=O=C1O/C(=C\Cn2cc(-c3ccccc3)c(=O)[nH]c2=O)C(OCc2ccccc2)=C1OCc1ccccc1 propertyname=IC50 measuredvalue=142
structureassmiles=O=C1O/C(=C\Cn2cc(C#Cc3ccccc3)c(=O)[nH]c2=O)C(OCc2ccccc2)=C1OCc1ccccc1 propertyname=IC50 measuredvalue=108
structureassmiles=CC#Cc1cn(C/C=C2\OC(=O)C(OCc3ccccc3)=C2OCc2ccccc2)c(=O)[nH]c1=O propertyname=IC50 measuredvalue=0.47
structureassmiles=O=C1O/C(=C\Cn2cc(C#Cc3ccccc3)c(=O)[nH]c2=O)C(O)=C1O propertyname=IC50 measuredvalue=8.1
structureassmiles=O=C1O/C(=C\Cn2cc(-c3cccs3)c(=O)[nH]c2=O)C(OCc2ccccc2)=C1OCc1ccccc1 propertyname=IC50 measuredvalue=142

----------
Assay: Cytotoxicity against HEL cells
Type: cell-based
Conditions: human
Reported MCC values are given for each entry in this list.
propertyName: MCC (µM)

structureassmiles=O=C1O/C(=C\Cn2cc(C#Cc3ccccc3)c(=O)[nH]c2=O)C(O)=C1O propertyname=MCC unittag=µM censoringqualifier== measuredvalue=20
structureassmiles=O=C1O/C(=C\Cn2cc(-c3ccco3)c(=O)[nH]c2=O)C(O)=C1O propertyname=MCC unittag=µM censoringqualifier== measuredvalue=100
structureassmiles=C=Cc1cn(C/C=C2\OC(=O)C(OCc3ccccc3)=C2OCc2ccccc2)c(=O)[nH]c1=O propertyname=MCC unittag=µM censoringqualifier== measuredvalue=87
structureassmiles=O=C1O/C(=C\Cn2cc(-c3ccccc3)c(=O)[nH]c2=O)C(O)=C1O propertyname=MCC unittag=µM censoringqualifier== measuredvalue=100
structureassmiles=O=C1O/C(=C\Cn2cc(-c3cccs3)c(=O)[nH]c2=O)C(O)=C1O propertyname=MCC unittag=µM censoringqualifier== measuredvalue=100
structureassmiles=CC(C)=CCc1cn(C/C=C2\OC(=O)C(OCc3ccccc3)=C2OCc2ccccc2)c(=O)[nH]c1=O propertyname=MCC unittag=µM censoringqualifier== measuredvalue=20
structureassmiles=C#Cc1cn(C/C=C2\OC(=O)C(OCc3ccccc3)=C2OCc2ccccc2)c(=O)[nH]c1=O propertyname=MCC unittag=µM censoringqualifier=≥ measuredvalue=18
structureassmiles=C#Cc1cn(C/C=C2\OC(=O)C(O)=C2O)c(=O)[nH]c1=O propertyname=MCC unittag=µM censoringqualifier== measuredvalue=20
